Tested on: HepG2 cells
PROTOCOL DETAILS: MTT antiproliferation assay, HepG2
Type: cell-based, human
CONDITION DETAILS: IC50 of non-cancerous Vero cells divided by IC50 of HepG2
Where a name gives a salt, the structure may show the parent alone.
Assign yes (1) to entries whose SI values HepG2 meets or exceeds 1; assign no (0) to the rest.

Problem: Is the recorded value of SI values HepG2 equal to or greater than 1 for this compound? CC1(C)CC[C@]2(CO)CC[C@]3(C)C(=CC[C@@H]4[C@@]5(C)CC[C@H](O)C(C)(C)[C@@H]5CC[C@]43C)[C@@H]2C1
Result: yes (1)

Problem: Tell me whether SI values HepG2 is at least 1 here: C[C@@H]1CC[C@]2(C(=O)O)CC[C@]3(C(=O)O)C(=CCC4[C@@]5(C)CC[C@H](O[C@H]6O[C@H](C)[C@@H](O)[C@H](O)[C@H]6O)C(C)(C)C5CC[C@]43C)C2[C@H]1C (stereo partly drawn)
Result: no (0)

Problem: Dear colleague, could you confirm whether CC1(C)CC[C@]2(C(=O)O)CC[C@]3(C)C(=CC[C@@H]4[C@@]5(C)CC[C@H](O)[C@@](C)(CO)[C@@H]5CC[C@]43C)[C@@H]2C1 has SI values HepG2 at or above 1?
Result: yes (1)

Problem: Quick check, SI values HepG2 >= 1? COc1cccc2c1C(=O)c1c(O)c3c(c(O)c1C2=O)C[C@@](O)(C(=O)CO)C[C@@H]3O[C@H]1C[C@H](N)[C@H](O)[C@H](C)O1 [Doxorubicin, doxorubicin hydrochloride, reference compound]
Result: yes (1)

Problem: Confirm if SI values HepG2 reported for the compound C[C@]12COCC=C1C[C@H]1c3[nH]c4ccccc4c3CCN1C2=O [Compound 10, latifoliamide C] is 1 or above.
Result: yes (1)
